assayed-system: Cytochrome P450 2C9 (Homo sapiens, UniProt P11712)
Sequence (P11712 whole entry): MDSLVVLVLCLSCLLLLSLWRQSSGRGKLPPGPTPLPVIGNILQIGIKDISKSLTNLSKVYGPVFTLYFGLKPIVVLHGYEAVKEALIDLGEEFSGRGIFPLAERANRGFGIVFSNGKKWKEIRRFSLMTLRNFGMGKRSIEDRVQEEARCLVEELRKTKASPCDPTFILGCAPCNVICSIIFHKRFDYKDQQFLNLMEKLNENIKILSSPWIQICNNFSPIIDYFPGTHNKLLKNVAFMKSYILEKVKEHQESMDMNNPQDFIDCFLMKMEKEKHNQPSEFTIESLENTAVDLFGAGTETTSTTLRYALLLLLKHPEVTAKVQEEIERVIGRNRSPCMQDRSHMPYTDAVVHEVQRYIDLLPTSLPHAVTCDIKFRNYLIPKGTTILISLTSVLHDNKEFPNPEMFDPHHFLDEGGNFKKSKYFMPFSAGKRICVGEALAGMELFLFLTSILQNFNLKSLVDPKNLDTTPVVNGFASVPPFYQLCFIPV
test-readout: IC50

Form field, IC50 with Cytochrome P450 2C9 (Homo sapiens, UniProt P11712), item COc1ccc2cc(C(=O)NCCN(C)C)oc2c1.CS(=O)(=O)O : > 10 µM

----------
assay-text: Solubility in PBS buffer at pH 7.4 assessed as precipitation of compound at 1250 nM
Type: physicochemical
experimental-context: pH 7.4, 1.25 µM
test-readout: solubility

Reference set, count: 5
> print(dat)
                           given.smiles  test.value
1        COc1ccc2cc(C(=O)OCCN(C)C)oc2c1     Soluble
2     COc1ccc2cc(C(=O)OCP(=O)(O)O)oc2c1     Soluble
3     COc1ccc2cc(C(=O)N(C)CCN(C)C)oc2c1     Soluble
4       COc1ccc2cc(C(=O)OCCCN(C)C)sc2c1   Insoluble
5  O=C(OCCN1CCOCC1)c1cc2cc3c(cc2s1)OCO3     Soluble

get_value(item= CCCCOC(=O)c1cc2ccc(OC)cc2s1 , readout=solubility) returns Insoluble

// solubility value for CN(C)CCNC(=O)c1cc2cc3c(cc2s1)OCO3 : Insoluble

Briefly, solubility measured for COc1ccc2cc(C(=O)OCCN3CCOCC3)oc2c1 : Soluble

Data provenance is ChEMBL document CHEMBL4765342.
